# credit: the supplement of paper PMC10567573

B1: HDAC6 (parent)
chain: YVHHQALLDVKNIAHQNKFGEDMP

Variants of: B1
METHOD_SUMMARY: protein stability index of a GFP-peptide fusion (GPS, HEK-293T) (PSI 1-6); higher = more stable;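 further: lentivirally expressed fusions sorted by FACS into six bins by GFP to DsRed ratio, PSI derived from sequencing read proportions per bin multiplied by bin number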
EXPERIMENTAL_SETUP: c terminus: a fixed tail appended
Values of protein stability index greater than or equal to 2 map to TRUE; values below map to FALSE.

[
  {
    "VAR": "Y1H",
    "CAT": "TRUE"
  },
  {
    "VAR": "V2E",
    "CAT": "TRUE"
  },
  {
    "VAR": "F19L",
    "CAT": "TRUE"
  },
  {
    "VAR": "H15S",
    "CAT": "FALSE"
  },
  {
    "VAR": "H4C",
    "CAT": "FALSE"
  },
  {
    "VAR": "N17A",
    "CAT": "TRUE"
  },
  {
    "VAR": "I13D",
    "CAT": "TRUE"
  },
  {
    "VAR": "H4S",
    "CAT": "FALSE"
  },
  {
    "VAR": "H3E",
    "CAT": "TRUE"
  },
  {
    "VAR": "V10M",
    "CAT": "FALSE"
  },
  {
    "VAR": "D9K",
    "CAT": "TRUE"
  },
  {
    "VAR": "G20K",
    "CAT": "TRUE"
  },
  {
    "VAR": "F19W",
    "CAT": "FALSE"
  },
  {
    "VAR": "V10D",
    "CAT": "TRUE"
  },
  {
    "VAR": "E21S",
    "CAT": "TRUE"
  },
  {
    "VAR": "M23E",
    "CAT": "TRUE"
  },
  {
    "VAR": "A6C",
    "CAT": "FALSE"
  },
  {
    "VAR": "I13C",
    "CAT": "FALSE"
  },
  {
    "VAR": "V10S",
    "CAT": "FALSE"
  },
  {
    "VAR": "D9I",
    "CAT": "TRUE"
  },
  {
    "VAR": "Y1Q",
    "CAT": "TRUE"
  },
  {
    "VAR": "A6P",
    "CAT": "FALSE"
  },
  {
    "VAR": "K18E",
    "CAT": "TRUE"
  },
  {
    "VAR": "P24Q",
    "CAT": "FALSE"
  },
  {
    "VAR": "F19P",
    "CAT": "TRUE"
  },
  {
    "VAR": "N17H",
    "CAT": "FALSE"
  },
  {
    "VAR": "L8S",
    "CAT": "TRUE"
  },
  {
    "VAR": "N17Q",
    "CAT": "FALSE"
  },
  {
    "VAR": "V2D",
    "CAT": "TRUE"
  },
  {
    "VAR": "N17M",
    "CAT": "FALSE"
  },
  {
    "VAR": "D9G",
    "CAT": "FALSE"
  },
  {
    "VAR": "H15D",
    "CAT": "TRUE"
  },
  {
    "VAR": "M23Y",
    "CAT": "TRUE"
  },
  {
    "VAR": "G20L",
    "CAT": "TRUE"
  },
  {
    "VAR": "H3Y",
    "CAT": "FALSE"
  },
  {
    "VAR": "L7R",
    "CAT": "FALSE"
  },
  {
    "VAR": "K18S",
    "CAT": "FALSE"
  },
  {
    "VAR": "V2Y",
    "CAT": "TRUE"
  },
  {
    "VAR": "A6G",
    "CAT": "TRUE"
  },
  {
    "VAR": "Q5N",
    "CAT": "FALSE"
  },
  {
    "VAR": "H3V",
    "CAT": "TRUE"
  },
  {
    "VAR": "N17I",
    "CAT": "FALSE"
  },
  {
    "VAR": "H3M",
    "CAT": "FALSE"
  },
  {
    "VAR": "K11H",
    "CAT": "TRUE"
  },
  {
    "VAR": "I13G",
    "CAT": "TRUE"
  },
  {
    "VAR": "Q16Y",
    "CAT": "TRUE"
  },
  {
    "VAR": "L7S",
    "CAT": "TRUE"
  },
  {
    "VAR": "V2R",
    "CAT": "TRUE"
  },
  {
    "VAR": "G20V",
    "CAT": "TRUE"
  },
  {
    "VAR": "L8V",
    "CAT": "FALSE"
  },
  {
    "VAR": "L7W",
    "CAT": "TRUE"
  },
  {
    "VAR": "D22W",
    "CAT": "TRUE"
  },
  {
    "VAR": "M23K",
    "CAT": "TRUE"
  },
  {
    "VAR": "K11S",
    "CAT": "TRUE"
  },
  {
    "VAR": "G20T",
    "CAT": "FALSE"
  },
  {
    "VAR": "D9A",
    "CAT": "TRUE"
  },
  {
    "VAR": "P24H",
    "CAT": "FALSE"
  },
  {
    "VAR": "L7A",
    "CAT": "FALSE"
  },
  {
    "VAR": "K11C",
    "CAT": "FALSE"
  },
  {
    "VAR": "Y1G",
    "CAT": "TRUE"
  },
  {
    "VAR": "L7F",
    "CAT": "TRUE"
  },
  {
    "VAR": "M23P",
    "CAT": "TRUE"
  }
]
